# protocol: NCI Yeast Anticancer Drug Screen. Data for the wt2 strain (AID 169);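 further: 0% = growth of vehicle-treated yeast cultures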
# experimental_conditions: S. cerevisiae wt2 strain growth inhibition; at 33.0 µM; hits give high values
This is part of a sample that, as a whole, favours compounds with a hit. Of some 79,000 tested, about 15% had one in any assay.
// no strictly below 30% in growth inhibition; yes otherwise

Use the examples below as a reference point.
Is it the case that CNC(=O)OCc1c(COC(=O)NC)c(-c2ccc(-c3ccccc3)cc2)n(C)c1C has growth inhibition reaching or exceeding 30%?
no

Now the molecule Cc1c(Cl)ccc2c1S(=O)(=O)c1cccc(Cl)c1-2
no

Now the molecule COC(=O)c1cc(-c2ccc(C)cc2)[nH]c(=O)c1C#N
no

Continuing:
Is it the case that COC1=CC(=O)C2C(C1=O)C(c1ccc(Cl)cc1)[C@@H]2C (stereo partly drawn) has growth inhibition reaching or exceeding 30%?
yes

Now the molecule CSc1nc(=S)[nH]c2c1c(C)nn2-c1ccccc1
no

----------
# protocol: NCI Yeast Anticancer Drug Screen. Data for the bub3 strain (AID 167)
# experimental_conditions: S. cerevisiae bub3 mutant strain, at 100.0 µM, hits give high values
About 79,000 compounds went through this panel and 15% of them were active in at least one assay; those are over-represented in the sample as a whole.
readout: growth inhibition (%)
The reply should contain only the number, in %.

// returns reported growth inhibition for input COC1C=COC2(C)Oc3c(C)c(O)c4c(c3C2=O)/C(=N/C2CCC(O)OC2C)C=C(NC(=O)/C(C)=C\C(=O)C2CC2C(O)C(C)C(O)C(C)C(OC(C)=O)C1C)C4=O (centres undefined)
91

Now the molecule CC1=NN(c2cccc(Cl)c2)C(=O)C1
29

Now the molecule CC(=O)Oc1cc(-c2cc(OC(C)=O)c(OC(C)=O)c3ccccc23)c2ccccc2c1OC(C)=O
87

Now the molecule CCN(CC)CCNc1ccc([N+](=O)[O-])c2nc3ccc(OC)cc3c(N)c12
64

Now the molecule COc1ccc2sc3cccc(NCCN(C)C)c3c(=O)c2c1
1

Continuing:
// returns reported growth inhibition for input Cc1ccc(CSC(N)=Nc2ccccc2)cc1C
34

Now the molecule CC(C)=CC(=O)O[C@@H]1CC(C)(C)CC2C3=CCC4[C@]56CC[C@](O)(OC5)C(C)(C)C6CC[C@@]4(C)C3(C)CC[C@]21C(=O)O (some centres undefined)
92

Now the molecule COc1cc2c3c(cccc3c1)C(=O)N(CCN(C)C)C2=O
-4

Now the molecule CCOC(=O)C1=C(C(=O)c2ccccc2)C(c2ccccc2[N+](=O)[O-])C(C(=O)c2ccccc2)=C(C(=O)OCC)N1
42

----------
# protocol: NCI Yeast Anticancer Drug Screen. Data for the bub3 strain (AID 167)
# experimental_conditions: S. cerevisiae bub3 mutant strain, at 11.0 µM
The panel holds about 79,000 compounds, 15% with a hit somewhere; the sample as a whole holds those more often. Activity calls are given as the source filed them. Cut-off read from the data, not from the text of the source: active = growth inhibition above about 70%; inactive = the rest.
Hello, when you answer, please use one of the following outcomes: active, inactive

Use the examples below as a reference point.
# fetch the recorded call for C[Si](C)(C)CNC(=O)OCc1ccccc1 here
inactive

Now the compound Cn1ccnc1Oc1ccc(Cl)cc1
inactive

Now the compound O=C1CSc2cc([N+](=O)[O-])ccc2N1
inactive

Now the compound CCC(C(=O)O)C1=C(c2ccccc2)CCc2ccccc21 (configuration not stated)
active

Now the compound O=C1C(=O)c2ccccc2C=C1[N+](=O)[O-]
inactive

Now the compound CCCCCCCCCC/C=C\C(=O)O
inactive

Now the compound C(CCSC1=NCCN1)CSC1=NCCN1 (tested in a mixture with another compound)
active

Now the compound S=C(Nc1ccc(Cl)cc1)SC1CCCCC1
inactive

Continuing:
# fetch the recorded call for O=C1c2ccccc2-c2nc3ccccc3nc21 here
inactive

Now the compound CN(C)c1ccc(Sc2ccc3nc(N)nc(N)c3c2)cc1
inactive

Now the compound C/C(=N/NC(=S)N1CCCCCC1)c1cccc(/C(C)=N\NC(=S)N2CCCCCC2)n1
inactive

Now the compound COc1cc2c(cc1[N+](=O)[O-])C(=O)C(Br)(Br)CCC2
active

Data credit: PubChem BioAssay (NCI)
